System: Thyroid gland
protocol.description: Biodistribution in thyroid of mouse B16F0 cells implanted C57BL/6J mouse assessed per gram of tissue at 0.4 to 5.5 MBq, iv after 0.25 hrs by gamma counter
Format: ADME, organism-based
assay.setup: in vivo
Please go through the items and note down their Drug uptake.
Give bare numbers, in %.

Worked examples follow.
smiles: CCN(CC)CCNC(=O)c1ccnc([18F])c1
Drug uptake / %: 4.8
//
smiles: CCCCN(C)CCCCNC(=O)c1ccc([18F])nc1
Drug uptake / %: 10.2
//
smiles: CCN(CC)CCNC(=O)c1cccnc1[18F]
Drug uptake / %: 4.5

Attention now turns to another entry.
q: Bench note: what Drug uptake did CCN(CC)CCNC(=O)c1ccc([18F])nc1 show?
a: 5.5

====

Please go through the items and note down their Drug uptake.
protocol.description: Biodistribution in eye of mouse B16F0 cells implanted C57BL/6J mouse assessed per gram of tissue at 0.4 to 5.5 MBq, iv after 3 hrs by gamma counter
Assay type: ADME, organism-based
assay.setup: in vivo
Numbers only, in %.

Worked examples follow.
smiles: CCN(CC)CCNC(=O)c1ccnc([18F])c1
Drug uptake, %: 18.8
//
smiles: CCN(CC)CCNC(=O)c1cccnc1[18F]
Drug uptake, %: 36.3
//
smiles: CCN(CC)CCNC(=O)c1ccc([18F])nc1
Drug uptake, %: 17.3

Attention now turns to another entry.
q: Bench note: what Drug uptake did CCCCN(C)CCCCNC(=O)c1ccc([18F])nc1 show?
a: 14.3

====

Please go through the items and note down their Drug uptake.
protocol.description: Biodistribution in eye of mouse B16F0 cells implanted C57BL/6J mouse assessed per gram of tissue at 0.4 to 5.5 MBq, iv after 0.25 hrs by gamma counter
Format: ADME, organism-based
assay.setup: in vivo
Show the value, then the unit it is measured in.

Each compound below has a recorded value; state its Drug uptake.
1. CCN(CC)CCNC(=O)c1ccc([18F])nc1
2. CCCCN(C)CCCCNC(=O)c1ccc([18F])nc1
3. CCN(CC)CCNC(=O)c1cccnc1[18F]
4. CCN(CC)CCNC(=O)c1ccnc([18F])c1

a:
14.7%
11.3%
36.7%
17.3%

====

System: Bone
protocol.description: Biodistribution in bone of mouse B16F0 cells implanted C57BL/6J mouse assessed per gram of tissue at 0.4 to 5.5 MBq, iv after 6 hrs by gamma counter
Type: ADME, organism-based, Bone element
assay.setup: in vivo
measurement.name: Drug uptake (%)
Numbers only, in %.

smiles: CCN(CC)CCNC(=O)c1ccc([18F])nc1
measurement.name: Drug uptake
reported.value: 0.52

smiles: CCN(CC)CCNC(=O)c1cccnc1[18F]
measurement.name: Drug uptake
reported.value: 5.6

Each molecule below has a recorded value; state its Drug uptake.
1. CCN(CC)CCNC(=O)c1ccnc([18F])c1
2. CCCCN(C)CCCCNC(=O)c1ccc([18F])nc1

a:
1: 0.43; 2: 1

====

Please go through the items and note down their Drug uptake.
Test system: Bone
protocol.description: Biodistribution in bone of mouse B16F0 cells implanted C57BL/6J mouse assessed per gram of tissue at 0.4 to 5.5 MBq, iv after 1 hr by gamma counter
Type: ADME, organism-based, Bone element
assay.setup: in vivo
Answers are plain numbers, in %.

smiles: CCCCN(C)CCCCNC(=O)c1ccc([18F])nc1
Drug uptake, %: 2

Each compound below has a recorded value; state its Drug uptake.
1. CCN(CC)CCNC(=O)c1ccnc([18F])c1
2. CCN(CC)CCNC(=O)c1cccnc1[18F]
3. CCN(CC)CCNC(=O)c1ccc([18F])nc1

a:
1.5
3.4
1.4

Provenance of the data: ChEMBL document CHEMBL1152441
